- Tested on: CCRIS mutagenicity, Ames/micronucleus/aberration tests
- procedure details: CCRIS mutagenicity studies
- protocol conditions: Test System: AMES SALMONELLA TYPHIMURIUM; Strain/Indicator: YG1025; Metabolic Activation: RAT, LIVER, S-9, PCB; Method: PREINCUBATION
Active and inactive are the calls of the source. No rule for the calls is given here.
measurement name: mutagenic call

Nc1nc(-c2ccc([N+](=O)[O-])cc2)nc2c1ncn2[C@@H]1O[C@H](CO)[C@@H](O)[C@H]1O : active; positive
Nc1nc(-c2ccc([N+](=O)[O-])cc2)nc2nc[nH]c12 : active; positive
Nc1ncnc2c1ncn2Cc1ccc([N+](=O)[O-])cc1 : inactive; negative
Nc1ncnc2c1ncn2-c1ccc([N+](=O)[O-])cc1[N+](=O)[O-] : inactive; negative

---

- Tested on: CCRIS mutagenicity, Ames/micronucleus/aberration tests
- procedure details: CCRIS mutagenicity studies
- protocol conditions: Test System: AMES SALMONELLA TYPHIMURIUM; Strain/Indicator: TA98; Metabolic Activation: RAT LIVER S-9, PCB; Method: PREINCUBATION
Calls of active or inactive are those of the source. The rule behind the calls is not given here.
measurement name: mutagenic call

O=C(O)c1ccccc1Cl : inactive; negative
O=C(Cl)c1c(Cl)cccc1Cl : active; positive
CCN(CC(O)c1ccc([N+]#N)c([O-])c1)N=O (configuration not stated) : active; positive
O=C(Cl)c1ccccc1 : active; positive
O=C(O)c1cccc(Cl)c1 : inactive; negative

Measured mutagenic call, "O=C(O)c1c(Cl)cccc1Cl" : inactive; negative

Measured mutagenic call, "O=Cc1ccc(Cl)cc1" : inactive; negative

---

- Test system: CCRIS mutagenicity, Ames/micronucleus/aberration tests
- procedure details: CCRIS mutagenicity studies
- protocol conditions: Test System: AMES SALMONELLA TYPHIMURIUM; Strain/Indicator: TA100; Metabolic Activation: NONE; Method: STANDARD PLATE
Activity calls are given as the source filed them. How the calls were made is not given here.
measurement name: mutagenic call

c1ccc2cc3cc4ccccc4cc3cc2c1 : inactive; negative
CCC1CCC(CCC(=O)[O-])C1.CCC1CCC(CCC(=O)[O-])CC1.[Cu+2] (stereo not drawn) : inactive; negative
C=C(C)C1CCC(=C)C2C3=C(C[C@H](C)C3=O)C(=O)C(C)=C[C@@H]12 (stereo partly drawn) : inactive; negative
Cc1ccc(N=CN(C)C=Nc2ccc(C)cc2C)c(C)c1 : inactive; negative
CCN(CC)c1ccc(N=Nc2ccc(N=Nc3c(S(=O)(=O)O)cc4ccc(N)cc4c3O)c(OC)c2)cc1 : inactive; negative

Measured mutagenic call, "O=C(CCl)c1ccc(Cl)cc1Cl" : inactive; negative

Measured mutagenic call, "CC(=O)Oc1ccc(CO)cc1" : inactive; negative

Measured mutagenic call, "CC(=O)Nc1ccc2c(c1)[nH]c1ccccc12" : inactive; negative

Measured mutagenic call, "CC(C)=CCC/C(C)=C/CO" : inactive; negative

Measured mutagenic call, "Nc1nc(N)nc(Cl)n1" : inactive; negative

Measured mutagenic call, COC1OC(=O)C(Cl)=C1C(Cl)Cl (stereo not drawn) : active; positive

Measured mutagenic call, "O=CC=C(Cl)Cl" : active; positive

---

- System: CCRIS mutagenicity, Ames/micronucleus/aberration tests
- procedure details: CCRIS mutagenicity studies
- protocol conditions: Test System: AMES SALMONELLA TYPHIMURIUM; Strain/Indicator: TA100; Metabolic Activation: NONE; Method: STANDARD PLATE
Calls of active or inactive are those of the source. How the calls were made is not given here. *1 amine or outer side, *2 acyl side, *3 side chain or, on linkers, in order; H or OH if unused. Where a SMILES comes first, the peptide text is derived from it. Bridges are numbered along the chain shown (N, C = ends). Roman numbers before positions name the chains, in order. [ ]: non-standard residue; d: D form. Actinocin(9to1) = Cc1c2oc3c(C)ccc(C(=O)[*:1])c3nc-2c(C(=O)[*:2])c(N)c1=O; NMeV = CN[C@H](C(=O)O)C(C)C; Sar = CNCC(=O)O
Hi there, use one of these labels in your reply, thanks! active, inactive

Solved entries (count: 6):
CC(=O)O[C@H]1C[C@@H]2C(COC(=O)CC(C)C)=CO[C@@H](OC(=O)CC(C)C)[C@@H]2[C@@]12CO2 : inactive
O=[N+]([O-])c1cccc(CO/N=C/c2nc3cc([N+](=O)[O-])ccc3n2Cc2ccc(Cl)cc2)c1 : inactive
Cc1c2oc3c(C)ccc(C(=O)N[C@@H]4C(=O)N[C@H](C(C)C)C(=O)N5CCC[C@H]5C(=O)N(C)CC(=O)N(C)[C@@H](C(C)C)C(=O)O[C@@H]4C)c3nc-2c(C(=O)N[C@@H]2C(=O)N[C@H](C(C)C)C(=O)N3CCC[C@H]3C(=O)N(C)CC(=O)N(C)[C@@H](C(C)C)C(=O)O[C@@H]2C)c(N)c1=O (I: T[dV]P[Sar][NMeV] / II: T[dV]P[Sar][NMeV]; ester I:1-I:C, II:1-II:C; linker I:N-II:N via Actinocin(9to1)) : inactive
ClCC(Cl)(Cl)Cl : active
ONc1cccc2ccccc12 : active
Cc1cccnc1 : inactive

Query string: Recorded call for CC1COCc2cc3c(cc21)C(C)(C)C(C)C3(C)C (stereo not given) ?
Result string: inactive

Query string: Recorded call for Cc1ccccc1OCC(O)CNCCOc1ccc(C(N)=O)cc1 (stereo not given) ?
Result string: inactive

Query string: Recorded call for "O=c1ccc2ccccc2[nH]1" ?
Result string: inactive

Query string: Recorded call for "CN(C(=O)c1csc([N+](=O)[O-])c1)c1ccccc1" ?
Result string: active

Query string: Recorded call for CC(/C=C(/C#N)c1ccc(F)cc1)C(c1ccccc1)C(C#N)c1ccc(F)cc1 (stereo not given) ?
Result string: inactive

Query string: Recorded call for "N=C(N)c1ccc2cc(C(=N)N)[nH]c2c1" ?
Result string: inactive

Query string: Recorded call for "Cc1cc(C(=O)NNCc2ccccc2)no1" ?
Result string: inactive

---

- Test system: CCRIS mutagenicity, Ames/micronucleus/aberration tests
- procedure details: CCRIS mutagenicity studies
- protocol conditions: Test System: AMES SALMONELLA TYPHIMURIUM; Strain/Indicator: TA100; Metabolic Activation: NONE
- Excerpt: The CCRIS database contains chemical records with carcinogenicity, mutagenicity, tumor promotion, and tumor inhibition test results. It was developed by the National Cancer Institute (NCI). Data are derived from studies cited in primary journals, current awareness tools, NCI reports, and other sources. Test results have been reviewed by experts in carcinogenesis and mutagenesis. CCRIS provides historical information from the years 1985 - 2011. It is no longer updated. […]
Calls of active or inactive are those of the source. No rule for the calls is given here.
Hi there, use one of these labels in your reply, thanks! TRUE (active), FALSE (inactive)

Solved entries (count: 8):
CC(C)=CC1C(C(=O)OCc2coc(Cc3ccccc3)c2)C1(C)C (stereo not given) : FALSE
CCNc1nc(Cl)nc(NC(C)C)n1 : FALSE
O=C(O)CC(Cl)C(=O)O (stereo not given) : FALSE
ClCCl : TRUE
C#C[C@]1(O)CC[C@H]2[C@@H]3CCC4=CC(=O)CC[C@@H]4[C@H]3CC[C@@]21C : FALSE
CCCN(CCC)c1c([N+](=O)[O-])cc(C(F)(F)F)cc1[N+](=O)[O-] : FALSE
O=C1OCCN1N=Cc1ccc([N+](=O)[O-])o1 : TRUE
C=C(C)C : FALSE

Query string: Recorded call for "CC(=O)OCC(=O)NCCCOc1cccc(CN2CCCCC2)c1" ?
Result string: FALSE

Query string: Recorded call for "CC(C)COP(=S)(OCC(C)C)SCCl" ?
Result string: FALSE

Query string: Recorded call for CC(=O)Nc1ccc(OCC(O)CNC(C)C)cc1 (stereo not given) ?
Result string: FALSE

Query string: Recorded call for CC(C)=CC1C(C(=O)OCc2cccc(Oc3ccccc3)c2)C1(C)C (stereo not given) ?
Result string: TRUE

Query string: Recorded call for "Cc1ccc2n[nH]nc2c1" ?
Result string: FALSE

Query string: Recorded call for "O=C1CCCc2cc3c(cc21)c([N+](=O)[O-])cc1ccccc13" ?
Result string: TRUE

Query string: Recorded call for "COS(=O)(=O)OC" ?
Result string: TRUE

---

- Test system: CCRIS mutagenicity, Ames/micronucleus/aberration tests
- procedure details: CCRIS mutagenicity studies
- protocol conditions: Test System: AMES SALMONELLA TYPHIMURIUM; Strain/Indicator: TA98; Metabolic Activation: NONE; Method: STANDARD PLATE
Active and inactive are the calls of the source. No rule for the calls is given here.
Hi there, use one of these labels in your reply, thanks! 1 (active), -1 (inactive)

Solved entries (count: 6):
c1ccc2c(c1)-c1nc3ccccc3c3c1c-2nc1ccccc13 : -1
O=C1c2ccccc2Cc2ccccc21 : 1
CCCCS(=O)(=O)n1ncc(Cl)c(Cl)c1=O : -1
O=[N+]([O-])c1cc2ccccc2c2c([N+](=O)[O-])cccc12 : 1
Fc1ccccc1-c1ccccc1 : -1
CN(C)c1ccc2nc3ccc(=[N+](C)C)cc-3sc2c1 : -1

Query string: Recorded call for "C/C=C/C=C/CCCCCCCOC(C)=O" ?
Result string: -1

Hello, the source for this data is PubChem BioAssay AID1259407, in case you need it.
